TGT: MERTK (UniProt Q12866)
Sequence (Q12866 whole entry, looked up): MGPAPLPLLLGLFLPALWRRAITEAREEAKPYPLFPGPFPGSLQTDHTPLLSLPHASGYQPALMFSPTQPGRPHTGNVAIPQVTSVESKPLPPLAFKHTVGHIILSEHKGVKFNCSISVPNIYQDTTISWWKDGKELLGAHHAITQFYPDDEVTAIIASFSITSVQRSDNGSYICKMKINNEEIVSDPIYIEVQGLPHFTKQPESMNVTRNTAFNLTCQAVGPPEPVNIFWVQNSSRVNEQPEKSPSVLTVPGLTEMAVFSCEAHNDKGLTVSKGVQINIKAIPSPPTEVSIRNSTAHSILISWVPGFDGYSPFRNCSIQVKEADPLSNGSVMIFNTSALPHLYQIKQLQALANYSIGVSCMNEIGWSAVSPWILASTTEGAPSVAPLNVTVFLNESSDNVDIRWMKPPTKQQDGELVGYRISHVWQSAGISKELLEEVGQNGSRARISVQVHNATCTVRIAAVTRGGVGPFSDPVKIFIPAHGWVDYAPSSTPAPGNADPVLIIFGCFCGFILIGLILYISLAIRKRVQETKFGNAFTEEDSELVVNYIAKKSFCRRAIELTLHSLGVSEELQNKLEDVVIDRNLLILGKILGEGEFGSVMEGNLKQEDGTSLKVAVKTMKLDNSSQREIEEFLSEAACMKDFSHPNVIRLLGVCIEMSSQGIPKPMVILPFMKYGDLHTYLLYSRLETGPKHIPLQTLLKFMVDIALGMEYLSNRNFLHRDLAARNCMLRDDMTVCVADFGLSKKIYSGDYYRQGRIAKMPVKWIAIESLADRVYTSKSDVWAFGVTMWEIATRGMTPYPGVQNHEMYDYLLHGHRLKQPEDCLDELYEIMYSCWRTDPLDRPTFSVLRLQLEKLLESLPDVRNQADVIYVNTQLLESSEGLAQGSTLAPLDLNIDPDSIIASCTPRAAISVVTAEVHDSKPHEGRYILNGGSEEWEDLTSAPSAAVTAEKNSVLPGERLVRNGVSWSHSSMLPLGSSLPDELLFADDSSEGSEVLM
PROTOCOL NOTES: phosphorylation enrichment, bacterial display (enrichment ratio); higher = better substrate or ligand; peptides without Tyr show the background
ENDPOINT LABEL: phosphorylation enrichment
When you answer, write just the number.

[
  {
    "POLYMER SEQUENCE": "AGREIYESDKC [TTN_Y4424]",
    "phosphorylation enrichment": 0.447
  }
]

From here, focus on the item given below.
Input: Record request: phosphorylation enrichment value, item FADGVYLALEE [DUOX2_Y70_Q71L_YF]
Output: 0.641

###

TGT: MERTK (UniProt Q12866)
PROTOCOL NOTES: phosphorylation enrichment, bacterial display (enrichment ratio); higher = better substrate or ligand; peptides without Tyr show the background
Response field class: enum, chosen by comparing phosphorylation enrichment against low (below 0.4), medium (0.4 to below 0.6), high (0.6 or more)

[
  {
    "POLYMER SEQUENCE": "VLAAQYTTVGR [SGSH_Y240_D235V]",
    "ANSWER LABEL": "medium"
  }
]

Input: Please indicate the class for HLLRIYYDITD [MMP27_Y307_W304L] based on its phosphorylation enrichment.
Output: high

Input: GET /class?item= SSNTEYLSASD [INSR_Y999_P997T]
Output: medium

Input: State the class of the sequence shown: RSSPVYVGRVV [TGM2_Y219]
Output: high

Input: Which class does KSIQLYDTPFE [SHB_Y297_G293S_YF] fall in?
Output: high

Input: Form: Item = PARLEYFENEK [IRS1_Y46_YF] ; Class = ?
Output: high

Input: Which phosphorylation enrichment category applies to LASSEYPVQRR [GALK1_Y236_R239Q] here?
Output: medium

Input: Which of the defined bands does the recorded phosphorylation enrichment of ADRTRYSAFGG [RBM4_Y361_A359T] sit within?
Output: low

Input: # bin lookup: classify TLPAFYMGNFS [GLB1_Y552] by its phosphorylation enrichment
Output: medium

Input: Could you tell me which band DNAYQYMLTDR [MYH7_Y164] belongs to?
Output: high

Input: For this sequence, which bin applies? ADLTEYLSTHY [UQCRC1_Y219]
Output: medium

###

TGT: c-Src SH2
PROTOCOL NOTES: SH2 binding enrichment of the phosphorylated peptide, bacterial display (enrichment ratio); higher = better substrate or ligand; peptides without Tyr show the background
ENDPOINT LABEL: SH2 binding enrichment
// no unit, no text: just the number

Examples with answers:
[
  {
    "POLYMER SEQUENCE": "SENYTYIWWLN [PSG4_Y271_K267E]",
    "SH2 binding enrichment": 0.399
  },
  {
    "POLYMER SEQUENCE": "FGMQLYQKFMH [GRB14_Y347_N349K_YF]",
    "SH2 binding enrichment": 1.08
  },
  {
    "POLYMER SEQUENCE": "DGDTRYSTFSE [TKTL1_Y318]",
    "SH2 binding enrichment": 2.62
  },
  {
    "POLYMER SEQUENCE": "QRRFLYFFSFL [PTEN_Y176_V175L_YF]",
    "SH2 binding enrichment": 0.774
  },
  {
    "POLYMER SEQUENCE": "ADCRYYTFPQM [GAMT_Y223_A224T]",
    "SH2 binding enrichment": 3.2
  }
]

Input: So what's the measured SH2 binding enrichment for this one? WNRDKYAATTT [TRIM39_Y439_G436R]
Output: 0.498

Input: Value lookup for SH2 binding enrichment; key = ETDSEYVKLSK [C7orf57_Y70_A74S]
Output: 0.753
